# Tested on: SN12C renal
# protocol_text: NCI tumour cell line growth inhibition, 48 h
readout: TGI (µM)
Answers are plain numbers, in µM.

compound	observed_value
C=C1C(=O)O[C@H]2[C@H]1CC/C(COC(=O)C(=O)c1cn(Cc3ccccc3)c3ccccc13)=C\CC[C@@]1(C)O[C@@H]21	6.03
CNc1ccc(C(=O)CC(O)CCC(C)C2OC(=O)CC(O)CC(=O)CC(O)CC(O)CC(O)CC(O)CC3(O)CC(O)C(C(=O)OC)C(CC(O[C@@H]4O[C@H](C)[C@@H](O)[C@H](N)[C@@H]4O)/C=C/C=C/C=C/C=C/C=C/C=C/C=C/C2C)O3)cc1 (some centres undefined)	2.99
Cc1ccc([N+](=O)[O-])cc1S(=O)(=O)Nc1ccc(C2=NNC(c3ccccc3)C2)cc1 (centres undefined)	59.2
COC(=O)[C@@H](C)CNS(=O)(=O)N(c1cc(C(F)(F)F)cc(C(F)(F)F)c1)C1CCN(Cc2ccc(F)cc2)CC1	18.5
COc1ccc(Nc2c3ccccc3nc3occc23)cc1	23.4
CCN(CC)C(=S)N/N=C(/C)c1cccc(/C(C)=N\NC(=S)N(CC)CC)n1	12.4

I'm hoping you can list TGI for every compound here, please.
1. CCCCC(O)(c1ccc(Cl)cc1)C(CN1CCOCC1)c1ccc(Cl)cc1 (centres undefined)
2. O=C(N/N=C/c1ccc(Cl)cc1)c1ccc(C(F)(F)F)nc1Nc1cccc(C(F)(F)F)c1

Response:
1: 28.5; 2: 10.6

---

# Tested on: SK-MEL-5 melanoma
# protocol_text: NCI tumour cell line growth inhibition, 48 h
readout: TGI

Check out these entries, answers already filled in.
                                   molecule        target_desc  observed_value
0         c1ccc2c(c1)ccn2CCc1c[nH]c2ccccc12  SK-MEL-5 melanoma         > 10 µM
1  Cn1c(=O)c(C(c2ccc([N+](=O)[O-])cc2)c2c(O)c3ccccc3n(C)c2=O)cc2ccccc21 (centres undefined)  SK-MEL-5 melanoma        > 100 µM
2  CCC[CH2][Sn]1([CH2]CCC)[O]CC(CN2CCCC2)[O]1 (centres undefined)  SK-MEL-5 melanoma         33.4 µM
3                  COCN(CCC1=CCCCC1)C(=O)OC  SK-MEL-5 melanoma        > 100 µM
4  C=C1C(=O)O[C@H]2[C@H]1CC/C(COC(=O)C(=O)c1cn(Cc3ccccc3)c3ccccc13)=C\CC[C@@]1(C)O[C@@H]21  SK-MEL-5 melanoma          4.1 µM
5  CN1CCN(CCCOc2ccc3nc(Nc4ccc(Cl)c(C(F)(F)F)c4)ccc3c2)CC1  SK-MEL-5 melanoma         29.1 µM

I'm hoping you can list TGI for every molecule here, please.
1. CCCN1CCC(=O)N(CCC(F)(F)C(F)(F)C(F)(F)C(F)(F)C(F)(F)C(F)(F)F)C1=S
2. COc1cc(/C=C2\C(=O)N(c3ccccc3)C(c3ccccc3)S2(=O)=O)cc(OC)c1OC (centres undefined)
3. CC1(C)NC2C(=O)c3c([nH]c4ccccc34)[C@]3(C)CCC1CC23 (some centres undefined)

Response:
1: > 100 µM; 2: > 100 µM; 3: > 100 µM

The origin of these recorded values is PubChem BioAssay (NCI).
